Target: T1, human prolactin receptor (PRLR) (human, UniProt P16471 25-622)
T1 sequence: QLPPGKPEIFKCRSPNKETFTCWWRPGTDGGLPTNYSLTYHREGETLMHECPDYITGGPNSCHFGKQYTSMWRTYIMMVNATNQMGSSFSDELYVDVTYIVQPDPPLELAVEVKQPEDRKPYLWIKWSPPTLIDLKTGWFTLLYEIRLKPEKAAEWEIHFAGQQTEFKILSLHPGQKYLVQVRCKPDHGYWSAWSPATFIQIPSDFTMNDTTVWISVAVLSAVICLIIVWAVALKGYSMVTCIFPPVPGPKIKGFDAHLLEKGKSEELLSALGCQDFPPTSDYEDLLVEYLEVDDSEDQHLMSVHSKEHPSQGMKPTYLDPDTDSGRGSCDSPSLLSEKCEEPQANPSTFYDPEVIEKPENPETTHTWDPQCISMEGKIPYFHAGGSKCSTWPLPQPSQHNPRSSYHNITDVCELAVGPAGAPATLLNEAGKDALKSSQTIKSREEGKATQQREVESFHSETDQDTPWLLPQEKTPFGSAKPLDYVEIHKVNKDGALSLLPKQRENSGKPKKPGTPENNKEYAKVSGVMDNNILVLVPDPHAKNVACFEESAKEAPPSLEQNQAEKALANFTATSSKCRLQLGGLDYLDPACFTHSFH
Experiment: cell-based or functional assay
Assay readout: IC50, cell viability, MCF7 cells

## Input Quick one: IC50, cell viability, MCF7 cells of H1H6803P-DM1 (antibody, human IgG1, V domains shown, DM1 conjugated through SMCC linker; attachment residues not stated) VH: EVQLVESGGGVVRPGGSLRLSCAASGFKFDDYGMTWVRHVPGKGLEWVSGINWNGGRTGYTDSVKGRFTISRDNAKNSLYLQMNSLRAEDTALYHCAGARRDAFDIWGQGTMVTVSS VL: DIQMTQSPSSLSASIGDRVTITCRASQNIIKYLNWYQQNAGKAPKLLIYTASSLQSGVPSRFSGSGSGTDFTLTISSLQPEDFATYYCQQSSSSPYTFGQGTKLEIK ?
## Output 150 nM

## Input Also need H1H6782P-DM1 (antibody, human IgG1, V domains shown, DM1 conjugated through SMCC linker; attachment residues not stated) VH: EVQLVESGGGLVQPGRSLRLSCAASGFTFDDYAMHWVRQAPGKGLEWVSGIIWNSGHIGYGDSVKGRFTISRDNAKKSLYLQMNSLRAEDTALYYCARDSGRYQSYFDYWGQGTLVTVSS VL: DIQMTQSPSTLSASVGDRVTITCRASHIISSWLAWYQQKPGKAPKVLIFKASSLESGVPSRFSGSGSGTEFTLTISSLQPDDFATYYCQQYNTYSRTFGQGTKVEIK , thanks.
## Output 120 nM

## Input Also need H1H6800P-DM1 (antibody, human IgG1, V domains shown, DM1 conjugated through SMCC linker; attachment residues not stated) VH: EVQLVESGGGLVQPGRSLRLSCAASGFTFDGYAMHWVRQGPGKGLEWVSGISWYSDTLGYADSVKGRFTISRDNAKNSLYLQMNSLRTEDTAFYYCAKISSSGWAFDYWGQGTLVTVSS VL: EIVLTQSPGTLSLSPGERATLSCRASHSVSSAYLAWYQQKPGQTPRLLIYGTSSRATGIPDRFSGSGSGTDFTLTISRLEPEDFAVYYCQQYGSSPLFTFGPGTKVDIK , thanks.
## Output 150 nM
